Biological target: Mitogen-activated protein kinase kinase kinase 2 (Homo sapiens) (UniProt Q9Y2U5)
Assay: modulators of MEK5 binding to wildtype MEKK2, primary screen, biochemical, multiplex bead flow cytometry, Alexa488-MEK5 (AID 1531)
Conditions: Alexa488-MEK5 binding to MEKK2 WT, at 10 µM, actives lie on both sides
Hit rate of the full screen: of about 290,000 compounds, about 3,300 (1.1%) were called active. This is one part of a sample in which actives are shown more often than they occur.
observedProperty: binding response (% of control) (%)

molecule=Cc1nn(CC(=O)NCCc2ccccc2)c(=O)c2cc3occc3n12 observedproperty="binding response (% of control)" result=111
molecule=CCc1ccc(-c2cc3c(=O)n(CC(=O)NCCCN4CCN(Cc5ccccc5)CC4)nc(C)n3n2)cc1 observedproperty="binding response (% of control)" result=141
molecule=COc1ccc(NC(=O)CCC(=O)Nc2cc(OC)c(NC(=O)c3ccco3)cc2OC)c(OC)c1 observedproperty="binding response (% of control)" result=96
molecule=COc1ccc(OCCCCN2CCC(C)CC2)cc1 observedproperty="binding response (% of control)" result=106
molecule=Cc1ccc(-c2ccc(=O)n(CC(=O)NCCCN3CCCCC3)n2)cc1 observedproperty="binding response (% of control)" result=109
molecule=COc1ccc(CNC(=O)c2ccc(Br)s2)cc1OC observedproperty="binding response (% of control)" result=96
molecule=CC(=O)NCCc1ccc(S(=O)(=O)Nc2ccc(C)c(S(=O)(=O)N3CCOCC3)c2)cc1 observedproperty="binding response (% of control)" result=103
molecule="CCCCC1(C(=O)OCC)NC(c2ccc(O)cc2)C2C(=O)N(c3ccccc3)C(=O)C21 (configuration not stated)" observedproperty="binding response (% of control)" result=99
molecule=CN1CCN(CCCNC(=O)c2ccc(/C=C3\Oc4ccccc4N(Cc4ccc(Cl)cc4)C3=O)cc2)CC1 observedproperty="binding response (% of control)" result=171
molecule="CC(C)(C)NCC(O)COc1cccc2[nH]c(=O)[nH]c12 (configuration not stated)" observedproperty="binding response (% of control)" result=113
molecule=CCCN1CCN(C(=O)CCCNC(=O)c2ccc(Cl)cc2)CC1 observedproperty="binding response (% of control)" result=100
molecule=Cc1ccc(CNC(=O)c2ccc3c(c2)S(=O)(=O)c2ccccc2C3=O)cc1 observedproperty="binding response (% of control)" result=111
molecule=Cc1cc(-c2ccc(C)c(S(=O)(=O)NCCCN(Cc3ccccc3)C(C)C)c2)on1 observedproperty="binding response (% of control)" result=108
molecule=CCn1cc(C(=O)NCC(=O)NC(C)(C)CO)c(=O)c2cc3c(cc21)OCO3 observedproperty="binding response (% of control)" result=101
molecule=FC(F)(F)c1cccc(N/N=C/c2ccccc2)c1 observedproperty="binding response (% of control)" result=143
molecule=FC(F)(F)c1cccc(Nc2ncnc3ccccc23)c1 observedproperty="binding response (% of control)" result=103
molecule=O=[N+]([O-])c1ccc(N/N=C/c2ccccc2)cc1 observedproperty="binding response (% of control)" result=99
molecule=CC(=O)NCCC(=O)Nc1nc(-c2ccc3c(c2)OCCO3)cs1 observedproperty="binding response (% of control)" result=109
molecule=CN(C)c1nc(Nc2ccc(Cl)c(Cl)c2)nc(N(C)C)n1 observedproperty="binding response (% of control)" result=98
molecule="CC(C(=O)N1CCN(c2ccccc2F)CC1)c1ccc([N+](=O)[O-])cc1 (configuration not stated)" observedproperty="binding response (% of control)" result=111
molecule=Cc1nc2ccccc2nc1N/N=C/c1ccc(O)cc1O observedproperty="binding response (% of control)" result=101
molecule=O=C(CSc1ccc(-c2ccccn2)nn1)Nc1ccccc1 observedproperty="binding response (% of control)" result=110
